target-desc: VEGFR (UniProt P35968 20-1356, limits assumed)
Sequence (P35968 20-1356 limits assumed): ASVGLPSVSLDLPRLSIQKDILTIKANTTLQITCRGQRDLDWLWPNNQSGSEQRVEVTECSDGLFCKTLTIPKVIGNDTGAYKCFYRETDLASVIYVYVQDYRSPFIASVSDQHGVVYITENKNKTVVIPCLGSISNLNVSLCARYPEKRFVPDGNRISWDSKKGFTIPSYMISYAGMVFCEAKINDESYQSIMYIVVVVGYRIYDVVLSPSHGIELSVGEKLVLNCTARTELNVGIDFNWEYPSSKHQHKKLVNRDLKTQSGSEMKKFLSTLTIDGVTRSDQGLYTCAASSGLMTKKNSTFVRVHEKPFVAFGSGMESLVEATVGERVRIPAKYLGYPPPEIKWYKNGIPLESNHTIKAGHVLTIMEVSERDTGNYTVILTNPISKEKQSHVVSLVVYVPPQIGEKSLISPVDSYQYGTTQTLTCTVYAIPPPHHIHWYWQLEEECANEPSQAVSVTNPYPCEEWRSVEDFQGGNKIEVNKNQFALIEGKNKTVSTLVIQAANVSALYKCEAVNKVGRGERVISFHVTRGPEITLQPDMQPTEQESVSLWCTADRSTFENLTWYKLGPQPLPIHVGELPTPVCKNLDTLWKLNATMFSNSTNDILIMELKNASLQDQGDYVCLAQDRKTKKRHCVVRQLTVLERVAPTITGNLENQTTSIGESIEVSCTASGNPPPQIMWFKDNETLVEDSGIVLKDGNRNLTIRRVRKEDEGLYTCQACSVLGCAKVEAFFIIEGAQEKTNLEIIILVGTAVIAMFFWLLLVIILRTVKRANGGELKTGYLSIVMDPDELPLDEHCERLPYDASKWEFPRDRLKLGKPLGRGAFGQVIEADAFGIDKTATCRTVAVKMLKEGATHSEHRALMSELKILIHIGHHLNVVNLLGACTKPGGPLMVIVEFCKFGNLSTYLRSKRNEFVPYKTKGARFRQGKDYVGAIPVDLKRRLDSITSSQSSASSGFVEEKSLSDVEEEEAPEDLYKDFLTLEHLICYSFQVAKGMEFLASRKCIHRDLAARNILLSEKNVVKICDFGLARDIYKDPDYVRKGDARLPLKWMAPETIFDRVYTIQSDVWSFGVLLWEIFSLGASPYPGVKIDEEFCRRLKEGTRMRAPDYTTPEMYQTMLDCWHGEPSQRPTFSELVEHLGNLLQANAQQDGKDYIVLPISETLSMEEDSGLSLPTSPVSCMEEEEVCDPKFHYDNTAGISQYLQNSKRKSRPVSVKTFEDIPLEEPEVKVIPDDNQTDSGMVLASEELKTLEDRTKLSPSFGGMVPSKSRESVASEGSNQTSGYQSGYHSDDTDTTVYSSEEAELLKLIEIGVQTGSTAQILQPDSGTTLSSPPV
procedure-text: cell-based or functional assay
Positions of bridges follow the written chain, without caps; N, C: chain ends. No end group written: not given here.

>  <binder>
AET-VEGFR_D2-GS16 (disulfide 9-16, 39-49) peptide: AETAGPTWCEDDWYYCWLFGTGGGGSGGGGSGGGGSGVCWEDSWGGEVCWLFGT

>  <IC50 / µg/mL>
0.016

$$$$
>  <binder>
AET-VEGFR_D2-PAS16 (disulfide 9-16, 39-49) peptide: AETAGPTWCEDDWYYCWLFGTAAPAAPAPAAPAAPAPVCWEDSWGGEVCWLFGT

>  <IC50 / µg/mL>
0.0015

$$$$
>  <binder>
AET-VEGFR_D2-PAS100 (two disulfide bonds in the molecule) peptide: AETAGPTWCEDDWYYCWLFGTAAPAAPAPAAPAAPAPAAPAAPAPAAPAAPAPAAPAAPAPAAPAAPAPAAPAAPAPAAPAAPAPAAPAAPAPAAPAAPAPAAPAAPAPAAPAAPAPAAPAVCWEDSWGGEVCWLFGT

>  <IC50 / µg/mL>
0.086

$$$$
>  <binder>
AET-VEGFR_D2-PAS49 (two disulfide bonds in the molecule) peptide: AETAGPTWCEDDWYYCWLFGTAAPAAPAPAAPAAPAPAAPAAPAPAAPAAPAPAAPAAPAPAAPAAPAPAVCWEDSWGGEVCWLFGT

>  <IC50 / µg/mL>
0.012

$$$$

// provenance: patent US20220396819A1
